- target-entity: Glutamate NMDA receptor
- assay-info: Inhibition of [3H]glycine binding to N-methyl-D-aspartate glutamate receptor in synaptic membranes of rat cerebral cortex
- Format: cell membranes
quantity-name: Log Ki
Answers are plain numbers.

Answered cases to consult:
C[C@H](NC(N)=O)c1ccc(NC(=O)/C=C/c2c(C(=O)[O-])[nH]c3cc(Cl)cc(Cl)c23)cc1.[Na+] -8.2
O=C(/C=C/c1c(C(=O)[O-])[nH]c2cc(Cl)cc(Cl)c12)Nc1ccc(CNC(=O)NC2CC2)cc1.[Na+] -8.25

Query string: State its Log Ki: O=C(O)CNC(=O)NCc1ccc(NC(=O)/C=C/c2c(C(=O)[O-])[nH]c3cc(Cl)cc(Cl)c23)cc1.[Na+]
Result string: -8.57

---

- target-entity: Albumin (Rattus norvegicus, UniProt P02770)
- Sequence (P02770 whole entry): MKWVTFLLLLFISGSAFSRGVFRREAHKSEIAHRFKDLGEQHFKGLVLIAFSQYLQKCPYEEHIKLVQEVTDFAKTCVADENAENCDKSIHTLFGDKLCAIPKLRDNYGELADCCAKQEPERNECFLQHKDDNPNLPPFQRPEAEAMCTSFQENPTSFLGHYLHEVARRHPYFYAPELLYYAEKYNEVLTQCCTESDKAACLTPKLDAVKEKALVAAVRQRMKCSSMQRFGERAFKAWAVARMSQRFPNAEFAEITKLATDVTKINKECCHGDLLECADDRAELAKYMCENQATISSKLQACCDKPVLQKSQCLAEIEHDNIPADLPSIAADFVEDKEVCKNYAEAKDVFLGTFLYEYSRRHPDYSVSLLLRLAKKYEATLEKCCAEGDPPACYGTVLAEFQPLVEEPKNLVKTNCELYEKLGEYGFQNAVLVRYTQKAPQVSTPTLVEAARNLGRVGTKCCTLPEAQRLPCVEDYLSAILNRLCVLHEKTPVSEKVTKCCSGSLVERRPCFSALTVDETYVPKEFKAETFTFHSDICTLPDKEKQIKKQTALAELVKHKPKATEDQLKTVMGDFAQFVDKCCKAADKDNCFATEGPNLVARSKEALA
- assay-info: Binding to rat serum albumin
quantity-name: RSA tR (min)
Answers are plain numbers, in min.

Consider the following items and state reported RSA tR for each.
1. O=C(/C=C/c1c(C(=O)[O-])[nH]c2cc(Cl)cc(Cl)c12)NC12CC3CC(CC(C3)C1)C2.[Na+]
2. O=c1[nH]c2cc(Cl)c(Cl)c([N+](=O)[O-])c2[nH]c1=O [LICOSTINEL]

Result string:
[141.2, 12.1]

Report RSA tR for each item below.
1. O=C(/C=C/c1c(C(=O)[O-])[nH]c2cc(Cl)cc(Cl)c12)Nc1ccccc1.[Na+] [GAVESTINEL SODIUM]
2. O=C(/C=C/c1c(C(=O)[O-])[nH]c2cc(Cl)cc(Cl)c12)NC1CCCCC1.[Na+]
3. NC(=O)NCc1ccc(NC(=O)/C=C/c2c(C(=O)[O-])[nH]c3cc(Cl)cc(Cl)c23)cc1.[Na+]
4. CC(=O)Nc1ccc(NC(=O)/C=C/c2c(C(=O)[O-])[nH]c3cc(Cl)cc(Cl)c23)cc1.[Na+]
5. NC(=O)Nc1ccc(NC(=O)/C=C/c2c(C(=O)[O-])[nH]c3cc(Cl)cc(Cl)c23)cc1.[Na+]

Result string:
1: 60.1; 2: 25.7; 3: 40.7; 4: 31.6; 5: 28.3

For each entry beneath this line, provide reported RSA tR.
1. O=C(/C=C/c1c(C(=O)[O-])[nH]c2cc(Cl)cc(Cl)c12)NCc1ccccc1.[Na+]
2. Nc1ccc(NC(=O)/C=C/c2c(C(=O)[O-])[nH]c3cc(Cl)cc(Cl)c23)cc1.[Na+]
3. CC/N=C(\S)NCc1ccc(NC(=O)/C=C/c2c(C(=O)[O-])[nH]c3cc(Cl)cc(Cl)c23)cc1.[Na+]
4. NC(=O)NCCc1ccc(NC(=O)/C=C/c2c(C(=O)[O-])[nH]c3cc(Cl)cc(Cl)c23)cc1.[Na+]
5. O=C(/C=C/c1c(C(=O)[O-])[nH]c2cc(Cl)cc(Cl)c12)Nc1ccc(CNC(=O)NC2CCOCC2)cc1.[Na+]

Result string:
1: 66.9; 2: 23.2; 3: 34.1; 4: 33.9; 5: 29.6

---

- target-entity: Glutamate NMDA receptor
- assay-info: Inhibition of [3H]glycine binding to N-methyl-D-aspartate glutamate receptor in synaptic membranes of rat cerebral cortex
- Type: cell membranes
quantity-name: Log Ki
Answers are plain numbers.

Here are 4 compounds together with their reported answers.
compound	recorded-number
COc1ccc(NC(=O)NCc2ccc(NC(=O)/C=C/c3c(C(=O)[O-])[nH]c4cc(Cl)cc(Cl)c34)cc2)cc1.[Na+]	-7.69
O=C(/C=C/c1c(C(=O)[O-])[nH]c2cc(Cl)cc(Cl)c12)Nc1ccc(CNC(=O)NC2CCOCC2)cc1.[Na+]	-8.15
NC(=O)NCc1ccc(NC(=O)/C=C/c2c(C(=O)[O-])[nH]c3cc(Cl)cc(Cl)c23)cc1.[Na+]	-8.67
O=C(/C=C/c1c(C(=O)[O-])[nH]c2cc(Cl)cc(Cl)c12)Nc1ccc(CNC(=O)Nc2ccccc2)cc1.[Na+]	-7.7

Look up Log Ki for the entries below, preserving their order.
1. C[C@@H](NC(N)=O)c1ccc(NC(=O)/C=C/c2c(C(=O)[O-])[nH]c3cc(Cl)cc(Cl)c23)cc1.[Na+]
2. O=C(/C=C/c1c(C(=O)[O-])[nH]c2cc(Cl)cc(Cl)c12)Nc1ccccc1.[Na+] [GAVESTINEL SODIUM]
3. CCNC(=O)NCc1ccc(NC(=O)/C=C/c2c(C(=O)[O-])[nH]c3cc(Cl)cc(Cl)c23)cc1.[Na+]

Result string:
[-7.93, -8.49, -8.62]

---

- target-entity: Glutamate receptor ionotropic, AMPA (Rattus norvegicus, UniProt P19490+P19491+P19492+P19493)
- assay-info: Inhibition of binding of [3H]AMPA to Ionotropic glutamate receptor AMPA in synaptic membranes of rat cerebral cortex
quantity-name: pKi
One number for each entry, as −log10 of the molar value.

Query string: Please supply the value of reported pKi for the item NC(=O)NCc1ccc(NC(=O)/C=C/c2c(C(=O)[O-])[nH]c3cc(Cl)cc(Cl)c23)cc1.[Na+]
Result string: 3.98

---

- target-entity: Glutamate NMDA receptor
- assay-info: Inhibition of [3H]glycine binding to N-methyl-D-aspartate glutamate receptor in synaptic membranes of rat cerebral cortex
- Assay type: cell membranes
For each entry below, report its Log Ki value.
Numbers only.

Below, 3 molecules whose answers are already recorded.
CC/N=C(\S)NCc1ccc(NC(=O)/C=C/c2c(C(=O)[O-])[nH]c3cc(Cl)cc(Cl)c23)cc1.[Na+] -7.91
NC(=O)NCCc1ccc(NC(=O)/C=C/c2c(C(=O)[O-])[nH]c3cc(Cl)cc(Cl)c23)cc1.[Na+] -8.2
NC(=O)Nc1ccc(NC(=O)/C=C/c2c(C(=O)[O-])[nH]c3cc(Cl)cc(Cl)c23)cc1.[Na+] -8.8

# evaluate next
Query string: Indicate its recorded Log Ki; the molecule in question is O=C(/C=C/c1c(C(=O)[O-])[nH]c2cc(Cl)cc(Cl)c12)Nc1ccc(CNC(=O)Nc2cccnc2)cc1.[Na+]
Result string: -7.83
